molecular target: GABA-A receptor; alpha-6/beta-3/gamma-2 (Homo sapiens, UniProt P18507+P28472+Q16445); assay: In vitro binding affinity for human GABA-A receptor alpha-6-beta-3-gamma-2 subunits expressed in L(tk-) cell membranes
Measured attribute: Ki

**Query** Please report Ki for the following compound: C#Cc1ccc2c(c1)C(=O)N(C)Cc1c(C(=O)OCCCOC(=O)c3ncn4c3CN(C)C(=O)c3cc(C#C)ccc3-4)ncn1-2
**Result** > 2000 nM

---

Biological target: GABA-A receptor; alpha-5/beta-3/gamma-2 (Homo sapiens, UniProt P18507+P28472+P31644)
Sequence (P18507 whole entry): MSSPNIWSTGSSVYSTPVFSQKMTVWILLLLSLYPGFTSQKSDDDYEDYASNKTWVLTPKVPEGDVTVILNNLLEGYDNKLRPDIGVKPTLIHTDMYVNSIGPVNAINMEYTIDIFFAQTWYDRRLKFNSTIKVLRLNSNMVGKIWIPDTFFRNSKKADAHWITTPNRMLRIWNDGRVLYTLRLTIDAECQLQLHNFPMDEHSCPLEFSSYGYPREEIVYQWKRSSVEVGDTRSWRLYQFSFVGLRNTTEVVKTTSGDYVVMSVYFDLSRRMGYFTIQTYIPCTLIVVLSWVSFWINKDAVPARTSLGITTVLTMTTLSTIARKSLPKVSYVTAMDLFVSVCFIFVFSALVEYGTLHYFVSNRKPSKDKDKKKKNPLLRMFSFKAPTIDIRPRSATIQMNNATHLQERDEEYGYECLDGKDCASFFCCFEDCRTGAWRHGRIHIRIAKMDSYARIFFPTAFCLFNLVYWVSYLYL
Sequence (P28472 whole entry): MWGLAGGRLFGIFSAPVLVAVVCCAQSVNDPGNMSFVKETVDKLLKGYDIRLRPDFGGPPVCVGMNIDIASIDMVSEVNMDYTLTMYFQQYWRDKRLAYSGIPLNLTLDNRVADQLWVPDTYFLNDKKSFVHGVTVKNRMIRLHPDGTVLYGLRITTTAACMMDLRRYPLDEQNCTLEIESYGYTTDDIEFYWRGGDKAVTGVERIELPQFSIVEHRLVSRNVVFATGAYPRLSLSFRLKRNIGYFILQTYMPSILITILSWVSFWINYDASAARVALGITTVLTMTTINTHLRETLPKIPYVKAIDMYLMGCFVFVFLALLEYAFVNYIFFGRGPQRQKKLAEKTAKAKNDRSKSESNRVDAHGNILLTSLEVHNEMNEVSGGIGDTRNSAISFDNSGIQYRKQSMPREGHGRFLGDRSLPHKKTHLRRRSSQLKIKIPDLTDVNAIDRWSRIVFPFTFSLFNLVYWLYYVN
Sequence (P31644 whole entry): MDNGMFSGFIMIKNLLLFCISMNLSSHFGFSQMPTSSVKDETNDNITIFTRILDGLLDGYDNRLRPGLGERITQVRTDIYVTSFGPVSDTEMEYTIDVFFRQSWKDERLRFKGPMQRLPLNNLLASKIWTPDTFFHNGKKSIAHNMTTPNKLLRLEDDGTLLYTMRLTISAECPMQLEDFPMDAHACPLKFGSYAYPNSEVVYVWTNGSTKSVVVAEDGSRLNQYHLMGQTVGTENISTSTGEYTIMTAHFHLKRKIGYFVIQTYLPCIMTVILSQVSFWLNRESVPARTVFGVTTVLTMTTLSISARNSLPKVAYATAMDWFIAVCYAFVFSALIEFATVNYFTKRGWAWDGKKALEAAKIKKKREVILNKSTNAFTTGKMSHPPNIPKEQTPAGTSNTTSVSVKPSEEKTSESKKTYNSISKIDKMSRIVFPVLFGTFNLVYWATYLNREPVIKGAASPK
Assay: In vitro binding affinity for human GABA-A receptor alpha-5-beta-3-gamma-2 subunits expressed in L(tk-) cell membranes
Measured attribute: Ki
# answer = value followed by unit

**Query** // fetch Ki for C#Cc1ccc2c(c1)C(=O)N(C)Cc1c(C(=O)OCCCOC(=O)c3ncn4c3CN(C)C(=O)c3cc(C#C)ccc3-4)ncn1-2 ; system: GABA-A receptor; alpha-5/beta-3/gamma-2 (Homo sapiens, UniProt P18507+P28472+P31644)
**Result** 15 nM
